biological target: T1, Fc-E-cadherin chimeric protein; test: SPR (BIAcore X), Fc-E-cadherin captured on protein A, peptide as analyte, 3 mM CaCl2, fit to binding isotherm
T1 construct: It was captured on immobilised protein A on a CM5 chip (about 3500 RU)
T1 sequence (P12830 155-709, change not shown): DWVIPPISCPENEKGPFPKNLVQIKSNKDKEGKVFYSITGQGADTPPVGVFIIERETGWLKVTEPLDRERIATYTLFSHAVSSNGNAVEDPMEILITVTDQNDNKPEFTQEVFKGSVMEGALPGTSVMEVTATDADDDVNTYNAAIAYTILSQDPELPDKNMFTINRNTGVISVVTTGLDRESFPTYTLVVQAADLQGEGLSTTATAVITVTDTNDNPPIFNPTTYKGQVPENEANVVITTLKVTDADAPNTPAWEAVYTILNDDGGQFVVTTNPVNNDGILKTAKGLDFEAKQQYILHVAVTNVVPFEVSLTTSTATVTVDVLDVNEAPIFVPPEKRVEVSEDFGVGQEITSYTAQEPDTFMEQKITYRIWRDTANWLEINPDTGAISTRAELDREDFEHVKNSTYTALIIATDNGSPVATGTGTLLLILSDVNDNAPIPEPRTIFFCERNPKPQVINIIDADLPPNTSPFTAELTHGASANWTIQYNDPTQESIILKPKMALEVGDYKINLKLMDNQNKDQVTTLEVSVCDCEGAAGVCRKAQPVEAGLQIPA
testReadout: pKd
pKd is defined as minus the log10 of a concentration measured in mol/L.

Supply measured pKd of H-DWVIP-NH2 (Linear synthetic peptide) [H-DWVIP-NH2] in your reply.
4.44

Provide pKd value for the following binder: H-DWVIPA-NH2 (Linear synthetic peptide; analogue of H-DWVIPP-NH2) [H-DWVIPA-NH2]
4.23

Given H-PWVIPP-NH2 (Linear synthetic peptide; analogue of H-DWVIPP-NH2) [H-PWVIPP-NH2] , respond with its pKd.
3.27

Entry H-DWVIPP-NH2 (Linear synthetic peptide; also called ADH254) [H-DWVIPP-NH2] needs its pKd filled in; supply it.
4.47

For the binder H-AWVIPP-NH2 (Linear synthetic peptide; analogue of H-DWVIPP-NH2) [H-AWVIPP-NH2] , give its measured pKd value.
4.38

Entry H-DWVIAP-NH2 (Linear synthetic peptide; analogue of H-DWVIPP-NH2) [H-DWVIAP-NH2] needs its pKd filled in; supply it.
4.77
